- Test system: HS 578T breast
- Protocol text: NCI tumour cell line growth inhibition, 48 h
Reported TGI values for the following compounds.
API: value field is a number in µM; no unit string.

For orientation, consider the following solved cases.
# Molecule smiles, TGI [µM]
rows = [
    ("COc1cc(/C=C2\\C[C@H]3[C@@H]4CC=C5C[C@@H](N6CCCC6)CC[C@]5(C)[C@H]4CC[C@]3(C)[C@H]2OC(C)=O)cc(OC)c1OC", 35.1),
    ("CC(C)n1nc(C#Cc2cccc(NC(=O)c3cccc(C(F)(F)F)c3)c2)c2c(N)ncnc21", 1.88),
    ("CC(C)(C)c1cc(C(=O)Nc2cc3ccccc3cc2C(=O)NCCN)cc(C(C)(C)C)c1", 4.57),
    ("COc1ccc(S(=O)(=O)NCCNc2nccc(-c3c(-c4ccccc4)nc4sccn34)n2)cc1", 47.4),
]

CCSc1nc(N)c2cnn(C)c2n1 yielded TGI of 74

###

- Tested on: SR leukemia
- Protocol text: NCI tumour cell line growth inhibition, 48 h
Where a SMILES comes first, the peptide text is derived from it. The star is where a group is joined. Palmitoyl = CCCCCCCCCCCCCCCC(=O)*
Reported GI50 values for the following molecules.

Guide cases for GI50, answers given:
# Molecule, Reported value
data = [
    ("CC(=O)Nc1ccc(-n2cnc3cc(-c4ccc(OCCN5CCCCC5)cc4)ccc32)cc1", "895 nM"),
    ("CCCCCCCCCCCCCCCC(=O)NC(CCCCN)C(=O)NCC(=O)NC(Cc1ccccc1)C(=O)N1CCCC1C(=O)NC(CO)C(=O)NC(Cc1ccc(O)cc1)C(=O)NC(CCCCN)C(=O)NC(CC(C)C)C(=O)NC(CCCN=C(N)N)C(=O)N1CCCC1C(=O)NCC(N)=O (stereo not drawn) (Palmitoyl-KGFPSYKLRPG-NH2; configuration not given here)", "17700 nM"),
]

Lab entry: SR leukemia assay, molecule COc1ccc(S(=O)(=O)NCCNc2nccc(-c3c(-c4ccccc4)nc4sccn34)n2)cc1 , GI50 = 784 nM

###

- System: LOX IMVI melanoma
- Protocol text: NCI tumour cell line growth inhibition, 48 h
Observation type: TGI (µM)
// return numeric value only (unit: µM, not printed)

Solved entries (count: 2):
# Compound, Measured target, Observation type, Reported value
records = [
    ("C=CCOn1c(C=C)nc2c(C)cccc21", "LOX IMVI melanoma", "TGI", 12.2),
    ("C#Cc1cccc(Nc2ncnc3ccc(-c4cncc(NS(C)(=O)=O)c4)cc23)c1", "LOX IMVI melanoma", "TGI", 2.86),
]

Entry COc1cc(O)c2c(c1)C(O)C(O)CC1OC1C(=O)/C=C/CC(C)OC2=O (stereo not given) — recorded TGI = 16.2

What the record says about COc1cc(/C=C\c2cccnc2Nc2ccccc2)cc(OC)c1OC : TGI is 24.6

###

This section presents molecules with their documented TGI values.
- Test system: MDA-MB-435
- Protocol text: NCI tumour cell line growth inhibition, 48 h
Form entry: value (µM) — number only.

# Molecule smiles, Observation type, Reported value
data = [
    ("C=CC(C)(C)n1cc(C2=C(O)C(=O)C(c3cn(C(C)(C)C=C)c4ccccc34)=C(OC(C)=O)C2=O)c2ccccc21", "TGI", 1.74),
]

Let us examine a further case.
Recorded TGI (molecule C=C(C)[C@@H]1CCC[C@]2(C(=O)O)CC[C@]3(C)[C@@H](CC[C@@H]4[C@@]5(C)C/C(=C/c6ccncc6)C(=O)C(C)(C)[C@@H]5CC[C@]43C)[C@@H]12 ): 6.88

###

- Tested on: DMS 273 small cell lung
- Protocol text: NCI tumour cell line growth inhibition, 48 h
Observation type: TGI

Answered cases to consult:
# Compound, Measured target, Observation type, Reported value
rows = [
    ("Cc1cccc(N2C(=O)/C(=C/c3ccc(N(CCC#N)CCC#N)cc3C)N=C2c2cc([N+](=O)[O-])ccc2Cl)c1", "DMS 273 small cell lung", "TGI", "> 100 µM"),
    ("COC(=O)C(=O)C(C(=O)C(=O)Nc1ccccc1C(N)=O)c1nc2ccc(C(=O)c3ccccc3)cc2[nH]c1=O (stereo not drawn)", "DMS 273 small cell lung", "TGI", "> 100 µM"),
]

Value of measured TGI for the entry CCOC(=O)NNC(=O)NC12CC3CC(CC(C3)C1)C2 : > 100 µM

###

- Test system: NCI/ADR-RES ovarian
- Protocol text: NCI tumour cell line growth inhibition, 48 h
Entries and their TGI values follow.

# Molecule, TGI
data = [
    ("CCCCCCCC(CC(=O)O)OC(=O)CC(CCCCCCC)OC1OC(C)C(O)C(O)C1OC1OC(C)C(O)C(O)C1O (stereo not given)", "> 100 µM"),
]

Quick note, TGI for CC(=O)OCC1OC(n2c3c(c(-c4ccco4)c(C#N)c2=S)CCCC3)C(OC(C)=O)C(OC(C)=O)C1OC(C)=O (stereo not given) landed at > 31.6 µM

TGI measured on CCCCCCCCCCCCCCCC(=O)OCC1OC(n2ccc(N)nc2=O)C(O)C1O (stereo not given) = > 100 µM

The molecule listed as O=C1O/C(=C\c2ccc(O)cc2)C(c2ccc(O)c(Cl)c2)=C1Br has a reported TGI of 65.4 µM

Lab note: measured TGI of Cc1ccc(OCCCCCCNCCO)c(C)c1 was 37.1 µM

###

- System: OVCAR-5 ovarian
- Protocol text: NCI tumour cell line growth inhibition, 48 h; in the data active = GI50 below about 0.43 µM; inactive = the rest
Where a SMILES comes first, the peptide text is derived from it. The star is where a group is joined. Palmitoyl = CCCCCCCCCCCCCCCC(=O)*
Your response should consist of one outcome taken from active, inactive

Some entries whose results are on file:
# Molecule, Assigned class
records = [
    ("Cc1ccc(OCCCCCCNCCO)c(C)c1", "inactive"),
    ("COc1cc(/C=C\\c2cccnc2Nc2ccccc2)cc(OC)c1OC", "inactive"),
    ("CC[C@@]1(OC(=O)CN(C)C)C(=O)OCc2c1cc1n(c2=O)Cc2cc3ccccc3nc2-1", "active"),
    ("C[C@H](NC(=O)CCC(F)(F)F)C(=O)N[C@@H]1C(=O)N(CCO)c2ncccc2-c2ccccc21", "inactive"),
    ("CCOC(=O)Cc1csc(NC(=O)C(OC(=O)c2ccc(N)cc2)c2ccccc2)n1 (centres undefined)", "inactive"),
    ("CCOC(=O)C1=C(c2ccccc2)N(Cc2ccccc2)C2(O)C=CC(=O)C3C(=O)N(c4ccccc4)C(=O)C132 (centres undefined)", "inactive"),
]

Each molecule tested received a call. Report the one for CCCCCCCCCCCCCCCC(=O)NC(CCCCN)C(=O)NCC(=O)NC(Cc1ccccc1)C(=O)N1CCCC1C(=O)NC(CO)C(=O)NC(Cc1ccc(O)cc1)C(=O)NC(CCCCN)C(=O)NC(CC(C)C)C(=O)NC(CCCN=C(N)N)C(=O)N1CCCC1C(=O)NCC(N)=O (centres undefined) (Palmitoyl-KGFPSYKLRPG-NH2; configuration not given here) .
inactive

Fill in: this test's call for O=C(NO)C(O)C(O)C(O)C(O)CO (centres undefined) is ___
inactive

What was the test verdict on CCCCCCCCCCCCNC(=O)[C@H]1CSC(c2ccc(OC)c(F)c2)N1 (some centres undefined) ?
inactive

###

- Test system: ACHN renal
- Protocol text: NCI tumour cell line growth inhibition, 48 h
Observation type: TGI (µM)
Your answer should be a plain number; it is taken to be in µM.

# Molecule smiles, Units, Reported value
rows = [
    ("c1ccc(C/C(=N\\Nc2nc3ccccc3o2)c2ccccn2)cc1", "µM", 3.31),
]

Here's the next entry for you.
The value of TGI recorded for N#Cc1ccc(N2Cc3cc(Cl)ccc3OC3=C2C(=O)N(Cc2ccccc2)C3=O)cc1 when tested on ACHN renal reads 2.2

###

# Lookup of reported TGI keyed by entry
- Tested on: HCT-15 colon
- Protocol text: NCI tumour cell line growth inhibition, 48 h
Numbers only; they are read as µM.

See these solved cases before continuing.
# Molecule smiles, Measured target, TGI [µM]
records = [
    ("C=C(C)[C@@H]1CCC[C@]2(C(=O)O)CC[C@]3(C)[C@@H](CC[C@@H]4[C@@]5(C)C/C(=C/c6ccncc6)C(=O)C(C)(C)[C@@H]5CC[C@]43C)[C@@H]12", "HCT-15 colon", 4.31),
    ("COc1cc(/C=C2\\C[C@H]3[C@@H]4CC=C5C[C@@H](N6CCCC6)CC[C@]5(C)[C@H]4CC[C@]3(C)[C@H]2OC(C)=O)cc(OC)c1OC", "HCT-15 colon", 25.1),
]

Moving on to the next compound.
Here CCN(CC)c1ccc(C(=C2C=CC(=[N+](CC)CC)C=C2)c2ccccc2)cc1 was tested on HCT-15 colon, and its TGI came to 0.587
